The measurements presented in this section are drawn from PubChem BioAssay AID1490.

- target_entity: 4'-phosphopantetheinyl transferase ffp (Bacillus subtilis)
- test_method_notes: qHTS Assay for Inhibitors of Bacillus subtilis Sfp phosphopantetheinyl transferase (PPTase);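 note: the enzyme is Sfp with the accession as filed and its product quenches rhodamine fluorescence; 0% = enzyme reaction without inhibitor and -100% = no enzyme wells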
- measurement_conditions: Biochemical Sfp PPTase activity
Among all 310,000 compounds or so, about 11,000 (3.5%) were called active. About 4% were inconclusive and are not listed. This excerpt belongs to a sample that is enriched for actives.
experimental_endpoint: largest response in the series, negative = inhibition

Solved cases (9 shown):
{"molecule": "CC(=O)N1CCOc2ccc(S(=O)(=O)N3CCC(C(=O)Nc4ccccc4F)CC3)cc21", "target_entity": "4'-phosphopantetheinyl transferase ffp (Bacillus subtilis)", "observed_result": "2.67% (inactive)"}
{"molecule": "CCOc1ccc(N/C=C/C(=O)c2cc(OC)c(OC)c(OC)c2)cc1", "target_entity": "4'-phosphopantetheinyl transferase ffp (Bacillus subtilis)", "observed_result": "-7.21% (inactive)"}
{"molecule": "COc1cccc(NC(=O)C2C(c3ccccc3)C2(Cl)Cl)c1 (stereo not given)", "target_entity": "4'-phosphopantetheinyl transferase ffp (Bacillus subtilis)", "observed_result": "11.1% (inactive)"}
{"molecule": "O=C(CNC(=O)C(c1ccccc1)c1ccccc1)N/N=C\\c1ccc2c(c1)OCO2", "target_entity": "4'-phosphopantetheinyl transferase ffp (Bacillus subtilis)", "observed_result": "-10.2% (inactive)"}
{"molecule": "CCOc1ccc(C2C3=C(CCCC3=O)N(CC(=O)O)C3=C2C(=O)CCC3)cc1", "target_entity": "4'-phosphopantetheinyl transferase ffp (Bacillus subtilis)", "observed_result": "-3.36% (inactive)"}
{"molecule": "Cc1noc(C)c1/C=N/Nc1ccc2ccccc2n1", "target_entity": "4'-phosphopantetheinyl transferase ffp (Bacillus subtilis)", "observed_result": "25.3% (inactive)"}
{"molecule": "O=C(N/N=C/c1ccc2c(c1)OCO2)C(=O)N1CCCC1", "target_entity": "4'-phosphopantetheinyl transferase ffp (Bacillus subtilis)", "observed_result": "24.9% (inactive)"}
{"molecule": "O=C1[C@H]2[C@H]3[C@H](O)[C@H](O)C/C(=N/OCc4ccccc4)[C@H]3CC[C@@H]2C(=O)N1Cc1ccccc1", "target_entity": "4'-phosphopantetheinyl transferase ffp (Bacillus subtilis)", "observed_result": "-7.38% (inactive)"}
{"molecule": "CCN(CC)CCCNC(=O)COc1ccc2oc3c(c2c1)CCCC3", "target_entity": "4'-phosphopantetheinyl transferase ffp (Bacillus subtilis)", "observed_result": "3.63% (inactive)"}

API: the following record is the query input.
// field: largest response in the series, negative = inhibition; key: COc1ccc(NC(=O)C2CCC(CNC(=O)[C@@H]3Cc4ccccc4CN3)CC2)cc1 (stereo not given in full) ; value = 7.97% (inactive)

----------
// values below are reported largest response in the series, negative = inhibition
- target_entity: 4'-phosphopantetheinyl transferase ffp (Bacillus subtilis)
- test_method_notes: qHTS Assay for Inhibitors of Bacillus subtilis Sfp phosphopantetheinyl transferase (PPTase);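 note: the enzyme is Sfp with the accession as filed and its product quenches rhodamine fluorescence; 0% = enzyme reaction without inhibitor and -100% = no enzyme wells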
- measurement_conditions: Biochemical Sfp PPTase activity
Out of some 310,000 compounds screened, about 11,000 (3.5%) were called active. Inconclusive results (about 4%) are left out. The sample holds actives, similar compounds and a random draw of the others, so the mix is not that of the screen.
Enter your answer as a number in %; do not include the unit.

{"compound": "Cc1sc2ncn(CC(=O)NCCN(C)C)c(=O)c2c1S(=O)(=O)N1CCC(C)CC1", "quantity_unit": "%", "observed_result": 16.8}
{"compound": "Cc1ccc(CCN2CC(C(=O)NCCc3ccccc3)CC2=O)cc1 (centres undefined)", "quantity_unit": "%", "observed_result": 20.9}
{"compound": "COc1cccc(NC(=O)C(=O)c2cn(CC(=O)N3CCOCC3)c3ccccc23)c1", "quantity_unit": "%", "observed_result": 11.1}
{"compound": "COC(=O)c1c(NC(=O)C(=O)N2CCCCC2)sc2c1CC(C)(C)OC2", "quantity_unit": "%", "observed_result": -1.3}
{"compound": "CCC(C)NC(=O)C1c2ccccc2Oc2ccccc21 (centres undefined)", "quantity_unit": "%", "observed_result": 5.93}

Entry O=C(NCc1ccc(Cl)cc1)c1cc(=O)nc2sc(-c3ccccc3)nn12 — recorded largest response in the series, negative = inhibition = 1.8

Per the records, this compound ( Cc1cc(C)n(-c2ccc(Cl)c(C(=O)O)n2)n1 ) has largest response in the series, negative = inhibition equal to -14.9

Reported largest response in the series, negative = inhibition ( O=C(COc1ccccc1)Nc1ccc(C(=O)N2CCCC2)cc1 ) = 22.7

Value of largest response in the series, negative = inhibition reported for the compound CCC(C)(C)NC(=O)C1c2ccccc2Oc2ccccc21 is 14.9

largest response in the series, negative = inhibition reading for N#Cc1c(-c2ccc(Cl)cc2)c2c([nH]c1=S)CCCC2 : -5.85
